Test: Hygroscopicity and stability test (exposure to controlled relative humidity; water content by Karl-Fischer, form by PXRD)
Type: physicochemical
Details: 80% RH, about room temperature, about two days; Karl-Fischer coulometric titration
measurement_kind: % water content (%)
Use % as the unit, but write only the number.

The following molecules have reported results that may help.
molecule	measurement_kind	experimental_value
CO[C@H]1C(=O)[C@]2(C)[C@@H](OC)C[C@H]3OC[C@@]3(OC(C)=O)[C@H]2[C@H](OC(=O)c2ccccc2)[C@]2(O)C[C@H](OC(=O)[C@H](O)[C@@H](NC(=O)OC(C)(C)C)c3ccccc3)C(C)=C1C2(C)C [Form I, Cabazitaxel]	% water content	0.14
CO[C@H]1C(=O)[C@]2(C)[C@@H](OC)C[C@H]3OC[C@@]3(OC(C)=O)[C@H]2[C@H](OC(=O)c2ccccc2)[C@]2(O)C[C@H](OC(=O)[C@H](O)[C@@H](NC(=O)OC(C)(C)C)c3ccccc3)C(C)=C1C2(C)C [Form IV, Cabazitaxel]	% water content	0.09
CO[C@H]1C(=O)[C@]2(C)[C@@H](OC)C[C@H]3OC[C@@]3(OC(C)=O)[C@H]2[C@H](OC(=O)c2ccccc2)[C@]2(O)C[C@H](OC(=O)[C@H](O)[C@@H](NC(=O)OC(C)(C)C)c3ccccc3)C(C)=C1C2(C)C [Form III, Cabazitaxel]	% water content	0.23
CO[C@H]1C(=O)[C@]2(C)[C@@H](OC)C[C@H]3OC[C@@]3(OC(C)=O)[C@H]2[C@H](OC(=O)c2ccccc2)[C@]2(O)C[C@H](OC(=O)[C@H](O)[C@@H](NC(=O)OC(C)(C)C)c3ccccc3)C(C)=C1C2(C)C [Form V, Cabazitaxel]	% water content	0.30

Entry CO[C@H]1C(=O)[C@]2(C)[C@@H](OC)C[C@H]3OC[C@@]3(OC(C)=O)[C@H]2[C@H](OC(=O)c2ccccc2)[C@]2(O)C[C@H](OC(=O)[C@H](O)[C@@H](NC(=O)OC(C)(C)C)c3ccccc3)C(C)=C1C2(C)C [Form II, Cabazitaxel] — recorded % water content = 0.09

----------
Assay: Hygroscopicity and stability test (exposure to controlled relative humidity; water content by Karl-Fischer, form by PXRD)
Type: physicochemical
Conditions: Atmospheric RH; Karl-Fischer coulometric titration
Protocol: Powder X-ray Diffraction was performed on an X-Ray powder diffractometer: PanAlytical X'pert Pro; CuKα radiation (λ=1.5418 Å); X'Celerator detector with active length 2.122 degrees 2-theta; laboratory temperature 22-25° C.; zero background sample holders. […] A silicon powder internal standard was used to calibrate the peak positions and to eliminate an effect of the sample preparation. […] The confidence interval for the peak positions was determined to be ±0.1 degrees 2-theta. […]
measurement_kind: % water content (%)
Use % as the unit, but write only the number.

The following compounds have reported results that may help.
compound	measurement_kind	experimental_value
CO[C@H]1C(=O)[C@]2(C)[C@@H](OC)C[C@H]3OC[C@@]3(OC(C)=O)[C@H]2[C@H](OC(=O)c2ccccc2)[C@]2(O)C[C@H](OC(=O)[C@H](O)[C@@H](NC(=O)OC(C)(C)C)c3ccccc3)C(C)=C1C2(C)C [Form II, Cabazitaxel]	% water content	0.02
CO[C@H]1C(=O)[C@]2(C)[C@@H](OC)C[C@H]3OC[C@@]3(OC(C)=O)[C@H]2[C@H](OC(=O)c2ccccc2)[C@]2(O)C[C@H](OC(=O)[C@H](O)[C@@H](NC(=O)OC(C)(C)C)c3ccccc3)C(C)=C1C2(C)C [Form I, Cabazitaxel]	% water content	0.05
CO[C@H]1C(=O)[C@]2(C)[C@@H](OC)C[C@H]3OC[C@@]3(OC(C)=O)[C@H]2[C@H](OC(=O)c2ccccc2)[C@]2(O)C[C@H](OC(=O)[C@H](O)[C@@H](NC(=O)OC(C)(C)C)c3ccccc3)C(C)=C1C2(C)C [Form III, Cabazitaxel]	% water content	0.05
CO[C@H]1C(=O)[C@]2(C)[C@@H](OC)C[C@H]3OC[C@@]3(OC(C)=O)[C@H]2[C@H](OC(=O)c2ccccc2)[C@]2(O)C[C@H](OC(=O)[C@H](O)[C@@H](NC(=O)OC(C)(C)C)c3ccccc3)C(C)=C1C2(C)C [Form IV, Cabazitaxel]	% water content	0.01

The record that follows has no % water content shown yet.
Entry CO[C@H]1C(=O)[C@]2(C)[C@@H](OC)C[C@H]3OC[C@@]3(OC(C)=O)[C@H]2[C@H](OC(=O)c2ccccc2)[C@]2(O)C[C@H](OC(=O)[C@H](O)[C@@H](NC(=O)OC(C)(C)C)c3ccccc3)C(C)=C1C2(C)C [Form V, Cabazitaxel] — recorded % water content = 0.08

----------
Experiment: Hygroscopicity and stability test (exposure to controlled relative humidity; water content by Karl-Fischer, form by PXRD)
Assay type: physicochemical
Conditions: 100% RH, about room temperature, about two days; Karl-Fischer coulometric titration
Would you mind labelling by % water content? At or over 0.2% is fulfilled, under is not fulfilled.

Inquiry: Please check the record CO[C@H]1C(=O)[C@]2(C)[C@@H](OC)C[C@H]3OC[C@@]3(OC(C)=O)[C@H]2[C@H](OC(=O)c2ccccc2)[C@]2(O)C[C@H](OC(=O)[C@H](O)[C@@H](NC(=O)OC(C)(C)C)c3ccccc3)C(C)=C1C2(C)C [Form I, Cabazitaxel] and state if its % water content is at or above 0.2%.
Reply text: not fulfilled

Inquiry: Please check the record CO[C@H]1C(=O)[C@]2(C)[C@@H](OC)C[C@H]3OC[C@@]3(OC(C)=O)[C@H]2[C@H](OC(=O)c2ccccc2)[C@]2(O)C[C@H](OC(=O)[C@H](O)[C@@H](NC(=O)OC(C)(C)C)c3ccccc3)C(C)=C1C2(C)C [Form III, Cabazitaxel] and state if its % water content is at or above 0.2%.
Reply text: not fulfilled

Inquiry: Please check the record CO[C@H]1C(=O)[C@]2(C)[C@@H](OC)C[C@H]3OC[C@@]3(OC(C)=O)[C@H]2[C@H](OC(=O)c2ccccc2)[C@]2(O)C[C@H](OC(=O)[C@H](O)[C@@H](NC(=O)OC(C)(C)C)c3ccccc3)C(C)=C1C2(C)C [Form IV, Cabazitaxel] and state if its % water content is at or above 0.2%.
Reply text: not fulfilled

Inquiry: Please check the record CO[C@H]1C(=O)[C@]2(C)[C@@H](OC)C[C@H]3OC[C@@]3(OC(C)=O)[C@H]2[C@H](OC(=O)c2ccccc2)[C@]2(O)C[C@H](OC(=O)[C@H](O)[C@@H](NC(=O)OC(C)(C)C)c3ccccc3)C(C)=C1C2(C)C [Form II, Cabazitaxel] and state if its % water content is at or above 0.2%.
Reply text: not fulfilled

Inquiry: Please check the record CO[C@H]1C(=O)[C@]2(C)[C@@H](OC)C[C@H]3OC[C@@]3(OC(C)=O)[C@H]2[C@H](OC(=O)c2ccccc2)[C@]2(O)C[C@H](OC(=O)[C@H](O)[C@@H](NC(=O)OC(C)(C)C)c3ccccc3)C(C)=C1C2(C)C [Form V, Cabazitaxel] and state if its % water content is at or above 0.2%.
Reply text: fulfilled

----------
Assay: Hygroscopicity and stability test (exposure to controlled relative humidity; water content by Karl-Fischer, form by PXRD)
Type: physicochemical
Conditions: 60% RH, about room temperature, about two days; Karl-Fischer coulometric titration
measurement_kind: % water content
Please report the result as a number followed by the unit.

compound	% water content
CO[C@H]1C(=O)[C@]2(C)[C@@H](OC)C[C@H]3OC[C@@]3(OC(C)=O)[C@H]2[C@H](OC(=O)c2ccccc2)[C@]2(O)C[C@H](OC(=O)[C@H](O)[C@@H](NC(=O)OC(C)(C)C)c3ccccc3)C(C)=C1C2(C)C [Form V, Cabazitaxel]	0.21%
CO[C@H]1C(=O)[C@]2(C)[C@@H](OC)C[C@H]3OC[C@@]3(OC(C)=O)[C@H]2[C@H](OC(=O)c2ccccc2)[C@]2(O)C[C@H](OC(=O)[C@H](O)[C@@H](NC(=O)OC(C)(C)C)c3ccccc3)C(C)=C1C2(C)C [Form I, Cabazitaxel]	0.13%

Entry CO[C@H]1C(=O)[C@]2(C)[C@@H](OC)C[C@H]3OC[C@@]3(OC(C)=O)[C@H]2[C@H](OC(=O)c2ccccc2)[C@]2(O)C[C@H](OC(=O)[C@H](O)[C@@H](NC(=O)OC(C)(C)C)c3ccccc3)C(C)=C1C2(C)C [Form III, Cabazitaxel] — recorded % water content = 0.14%

Entry CO[C@H]1C(=O)[C@]2(C)[C@@H](OC)C[C@H]3OC[C@@]3(OC(C)=O)[C@H]2[C@H](OC(=O)c2ccccc2)[C@]2(O)C[C@H](OC(=O)[C@H](O)[C@@H](NC(=O)OC(C)(C)C)c3ccccc3)C(C)=C1C2(C)C [Form II, Cabazitaxel] — recorded % water content = 0.07%

Entry CO[C@H]1C(=O)[C@]2(C)[C@@H](OC)C[C@H]3OC[C@@]3(OC(C)=O)[C@H]2[C@H](OC(=O)c2ccccc2)[C@]2(O)C[C@H](OC(=O)[C@H](O)[C@@H](NC(=O)OC(C)(C)C)c3ccccc3)C(C)=C1C2(C)C [Form IV, Cabazitaxel] — recorded % water content = 0.07%
